// provenance: ChEMBL document CHEMBL4118187

# System: Enterococcus faecalis
# assay: Antibacterial activity against vancomycin-resistant Enterococcus faecalis 342B after 24 hrs
# Type: functional
measureName: MBC

Worked cases, MBC given:
CC(C)[C@H](NC(=O)OCc1ccccc1)C(=O)Oc1ccc(Cl)cc1C(=O)Nc1ccc([N+](=O)[O-])cc1 : > 486 µM
CC(C)[C@H](NC(=O)OCc1ccccc1)C(=O)Oc1ccc(Cl)cc1C(=O)Nc1ccc(C(F)(F)F)cc1 : > 466 µM

Note: attention shifts to another entry.
IN: I am curious: what MBC value has been reported for "O=C(Nc1ccccc1)c1cc(Cl)ccc1O" ?
OUT: > 1030 µM

====

MIC values by entry
# System: Enterococcus faecalis
# assay: Antibacterial activity against vancomycin-susceptible Enterococcus faecalis ATCC 29212 after 24 hrs
# Assay type: functional
# experimentalSetup: ATCC 29212, 24 h

Worked set:
CC(C)[C@H](NC(=O)OCc1ccccc1)C(=O)Oc1ccc(Cl)cc1C(=O)Nc1ccc(C(F)(F)F)cc1 : > 466 µM
Cc1ccc(NC(=O)[C@@H](NC(=O)c2cc(Cl)ccc2O)C(C)C)cc1 : > 709 µM

From here, focus on the item given below.
IN: Entry "CC(C)[C@H](NC(=O)c1ccc(Cl)cc1O)C(=O)Nc1ccc(Br)cc1" , system Enterococcus faecalis: what MIC was measured?
OUT: > 601 µM

====

# Test system: Enterococcus faecalis
# assay: Antibacterial activity against vancomycin-resistant Enterococcus faecalis 725B after 24 hrs
# Format: functional
Below, each of the compounds is paired with its reported MIC value.

CC(C)[C@H](NC(=O)c1ccc(Cl)cc1O)C(=O)Nc1ccc(Br)cc1 : > 601 µM
CC(C)[C@H](NC(=O)OCc1ccccc1)C(=O)Oc1cc(Cl)ccc1C(=O)Nc1ccc(Cl)c(Cl)c1 : > 465 µM
CC(C)[C@H](NC(=O)c1cc(Cl)ccc1O)C(=O)Nc1ccc(C(F)(F)F)cc1 : > 617 µM

For the next question, use this compound.
IN: Please give the measured MIC for this compound: "Cc1ccc(NC(=O)[C@@H](NC(=O)c2cc(Cl)ccc2O)C(C)C)cc1"
OUT: > 709 µM

====

# System: Enterococcus faecalis
# assay: Antibacterial activity against vancomycin-resistant Enterococcus faecalis 342B after 24 hrs
# Assay type: functional
measureName: MBC

Sample answers from the record:
O=C(Nc1ccc(C(F)(F)F)cc1)c1cc(Cl)ccc1O : 25.3 µM
O=C(Nc1ccc(Cl)cc1)c1cc([N+](=O)[O-])ccc1O : > 874 µM
COc1ccc(NC(=O)c2cc(Cl)ccc2OC(=O)[C@@H](NC(=O)OCc2ccccc2)C(C)C)cc1 : > 499 µM

IN: Please tell me: MBC of "CC(C)[C@H](NC(=O)c1ccc(Cl)cc1O)C(=O)Nc1ccc(Br)cc1" , system Enterococcus faecalis?
OUT: > 601 µM

IN: Which MBC is reported with Enterococcus faecalis for this entry: "CC(C)[C@H](NC(=O)OCc1ccccc1)C(=O)Oc1cc(Cl)ccc1C(=O)Nc1ccc(Cl)c(Cl)c1" ?
OUT: > 465 µM

IN: Lab note: need MBC with Enterococcus faecalis for entry "O=C(Nc1ccc(Cl)c(Cl)c1)c1ccc(Cl)cc1O" , please look it up.
OUT: 25.3 µM

IN: What value of MBC on Enterococcus faecalis does "Cc1ccc(NC(=O)[C@@H](NC(=O)c2cc(Cl)ccc2O)C(C)C)cc1" have?
OUT: > 709 µM

IN: Param readout = MBC; param system = Enterococcus faecalis; param query = "CC(C)[C@H](NC(=O)c1cc(Cl)ccc1O)C(=O)Nc1ccc(C(F)(F)F)cc1" ; response: value
OUT: > 617 µM

IN: # returns recorded MBC (system: Enterococcus faecalis) for "O=C(Nc1ccc([N+](=O)[O-])cc1)c1cc(Cl)ccc1O"
OUT: 6.83 µM
